test system: HT-29; assay: Inhibition of TNF-alpha-induced adhesion of BCECF-labeled human U937 cells to human HT-29 cells at 10 uM preincubated for 1 hr followed by TNF-alpha challenge measured after 3 hrs by fluorescence microscopic method relative to control; format: functional

CHEMICAL STRUCTURE: O=C1/C(=C/c2ccc(Cl)cc2)Cc2ccccc21
inhibition at 10 µM [%]: -6.1

CHEMICAL STRUCTURE: O=C1/C(=C/c2ccc(O)cc2)Oc2cc(O)ccc21
inhibition at 10 µM [%]: 80.3

CHEMICAL STRUCTURE: O=C1/C(=C/c2ccc(C(F)(F)F)cc2)Cc2ccccc21
inhibition at 10 µM [%]: 22.5

CHEMICAL STRUCTURE: O=C1/C(=C/c2ccccc2OC(F)(F)F)Cc2ccccc21
inhibition at 10 µM [%]: 3.4
